Data origin, for the record: PubChem BioAssay AID1159580

# ASSAY REMARKS: chemical genetic growth profiling, strain panel (AID 1159580);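 further: tested at 20 µM; growth read once vehicle control cultures reached saturation at 30 °C; 1 = growth at the plate median or of vehicle wells; lower values mean less growth of the strain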
# SETUP CONDITIONS: S. cerevisiae deletion strains, growth OD, locus YJL092W, strain hpr5, hits give low values
The campaign covered roughly 5,500 compounds. About 2,000 (36%) were called active. About 18% were inconclusive and are not listed. The list shows a part of the results.
// reported normalized growth for each item listed

[
  {
    "COMPOUND": "CC(=O)O[C@@H]1CC2C(C)(C)CCC(=O)[C@]2(C)C2CC[C@@]3(C)[C@H](c4ccoc4)OC(=O)C4OC43[C@@]21C (stereo not given in full)",
    "normalized growth": 0.985
  },
  {
    "COMPOUND": "NC(=O)CC[C@@H](N)C(=O)O",
    "normalized growth": 1.03
  },
  {
    "COMPOUND": "NS(=O)(=O)c1cc2c(cc1C(F)(F)F)NCNS2(=O)=O",
    "normalized growth": 1
  },
  {
    "COMPOUND": "COc1ccc(-c2cc(=O)c3c(O)c(OC)c(OC)c(OC)c3o2)cc1",
    "normalized growth": 0.99
  },
  {
    "COMPOUND": "Cc1cc2cc3c(C)cc(=O)oc3c(C)c2o1",
    "normalized growth": 0.978
  }
]

====

# ASSAY REMARKS: chemical genetic growth profiling, strain panel (AID 1159580);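 further: tested at 20 µM; growth read once vehicle control cultures reached saturation at 30 °C; 1 = growth at the plate median or of vehicle wells; lower values mean less growth of the strain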
# SETUP CONDITIONS: S. cerevisiae deletion strains, growth OD, locus YOR270C, strain vph1, hits give low values
About 2,000 (36%) of roughly 5,500 compounds were called active. Roughly 18% stayed inconclusive and do not appear here. This is one part of the list.
hey, just use 1.0 if measured normalized growth is less than 1, otherwise 0.0

[
  {
    "COMPOUND": "O=c1oc2ccccc2c(O)c1Cc1c(O)c2ccccc2oc1=O",
    "CATEGORY LABEL": 0.0
  },
  {
    "COMPOUND": "COc1ccc(C(=O)/C=C/c2ccccc2)cc1",
    "CATEGORY LABEL": 1.0
  },
  {
    "COMPOUND": "CCCN1C[C@H](CSC)C[C@@H]2c3cccc4[nH]cc(c34)C[C@H]21",
    "CATEGORY LABEL": 0.0
  },
  {
    "COMPOUND": "COc1cc([C@@H]2c3cc4c(cc3C(O[C@@H]3O[C@@H]5CO[C@@H](c6cccs6)OC5[C@H](O)[C@H]3O)C3COC(=O)[C@@H]32)OCO4)cc(OC)c1O (stereo partly specified)",
    "CATEGORY LABEL": 1.0
  },
  {
    "COMPOUND": "O=C(/C=C/c1ccccc1)c1ccc(O)cc1",
    "CATEGORY LABEL": 1.0
  }
]

====

# ASSAY REMARKS: chemical genetic growth profiling, strain panel (AID 1159580);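 further: tested at 20 µM; growth read once vehicle control cultures reached saturation at 30 °C; 1 = growth at the plate median or of vehicle wells; lower values mean less growth of the strain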
# SETUP CONDITIONS: S. cerevisiae deletion strains, growth OD, locus YDL185W, strain tfp1, hits give low values
In all, about 5,500 compounds went through this assay and about 2,000 (36%) were called active. Inconclusive results (about 18%) are left out. This is one part of the list.

[
  {
    "COMPOUND": "CN(C)CCC=C1c2ccccc2C=Cc2ccccc21",
    "normalized growth": 0.949
  },
  {
    "COMPOUND": "O=C(/C=C/c1ccccc1)c1ccc(O)cc1",
    "normalized growth": 0.817
  },
  {
    "COMPOUND": "COc1ccc(C(=O)/C=C/c2ccccc2)cc1",
    "normalized growth": 0.942
  },
  {
    "COMPOUND": "O=c1c(-c2cc(O)c(O)c(O)c2)coc2cc(O)c(O)c(O)c12",
    "normalized growth": 0.944
  },
  {
    "COMPOUND": "CN(N=O)C(=O)N[C@@H]1[C@@H](O)[C@H](O)[C@@H](CO)O[C@@H]1O",
    "normalized growth": 1.02
  },
  {
    "COMPOUND": "COc1cccc2c1cc([N+](=O)[O-])c1c(C(=O)O)cc3c(c12)OCO3",
    "normalized growth": 1
  },
  {
    "COMPOUND": "C=C1C(N)CC2CC1C2(C)C (stereo not drawn)",
    "normalized growth": 1.01
  },
  {
    "COMPOUND": "COC(=O)C1=C(C)NC(C)=C(C(=O)OCCN(C)Cc2ccccc2)C1c1cccc([N+](=O)[O-])c1 (stereo not drawn)",
    "normalized growth": 0.977
  },
  {
    "COMPOUND": "CC(=O)CC(c1ccccc1)c1c(O)c2ccccc2oc1=O (stereo not drawn)",
    "normalized growth": 1.01
  },
  {
    "COMPOUND": "CN1CCOC(c2ccccc2)c2ccccc2C1 (stereo not drawn)",
    "normalized growth": 1.02
  },
  {
    "COMPOUND": "O=c1c2ccccc2oc2ccc(O)cc12",
    "normalized growth": 0.901
  },
  {
    "COMPOUND": "CCC1C2CC3C4N(C)c5ccccc5C45CC(C2C5OC(C)=O)N3C1OC(C)=O (stereo not drawn)",
    "normalized growth": 1.02
  },
  {
    "COMPOUND": "C=CCCCCCCCCCCCC(O)CC(O)CO (stereo not drawn)",
    "normalized growth": 0.989
  },
  {
    "COMPOUND": "COc1ccc(-c2cc(=O)c3ccccc3o2)cc1",
    "normalized growth": 0.907
  },
  {
    "COMPOUND": "C=C1C2CC[C@@]3(C)[C@H](c4ccoc4)OC(=O)C[C@]13O[C@H]1CC(=O)C(C)(C)[C@H](C(O)C(=O)OC)[C@@]21C (stereo partly drawn)",
    "normalized growth": 1.01
  },
  {
    "COMPOUND": "CC1(C)O[C@@H]2CC3C4C[C@H](F)C5=CC(=O)C=CC5(C)C4C(O)CC3(C)[C@]2(C(=O)CO)O1 (stereo partly drawn)",
    "normalized growth": 0.991
  },
  {
    "COMPOUND": "CSc1ccc2c(c1)C(N1CCN(C)CC1)Cc1ccccc1S2 (stereo not drawn)",
    "normalized growth": 1.01
  },
  {
    "COMPOUND": "COc1cc2c3cc1Oc1cc(ccc1O)C[C@@H]1c4c(cc(OC)c(O)c4Oc4ccc(cc4)C[C@@H]3N(C)CC2)CC[N+]1(C)C",
    "normalized growth": 1.01
  },
  {
    "COMPOUND": "O=c1[nH]c2cc(Cl)c(Cl)cc2[nH]c1=O",
    "normalized growth": 1.02
  },
  {
    "COMPOUND": "C[n+]1cc2c3c(ccc2c2ccc4cc5c(cc4c21)OCO5)OCO3",
    "normalized growth": 0.914
  },
  {
    "COMPOUND": "CC(=O)O[C@@H]1CC2C(C)(C)[C@H](O)C[C@H](O)[C@]2(C)C2CC[C@@]3(C)[C@H](c4ccoc4)OC(=O)[C@H]4O[C@]43[C@@]21C (stereo partly drawn)",
    "normalized growth": 0.981
  },
  {
    "COMPOUND": "O=C(O)c1nc2cc(Cl)c(Cl)cc2[nH]c1=O",
    "normalized growth": 0.956
  },
  {
    "COMPOUND": "O=c1c(-c2ccc(O)cc2)coc2cc(O)cc(O)c12",
    "normalized growth": 1.02
  }
]

====

# ASSAY REMARKS: chemical genetic growth profiling, strain panel (AID 1159580);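 further: tested at 20 µM; growth read once vehicle control cultures reached saturation at 30 °C; 1 = growth at the plate median or of vehicle wells; lower values mean less growth of the strain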
# SETUP CONDITIONS: S. cerevisiae deletion strains, growth OD, locus YDR052C, strain DBF4, hits give low values
The campaign covered roughly 5,500 compounds. About 2,000 (36%) were called active. Another 18% or so got no clear call; they are omitted. Some of the results follow.
// reported normalized growth for each item listed

[
  {
    "MOLECULE": "O=C1c2ccccc2O[C@@H](c2ccccc2)[C@@H]1NCc1ccccc1",
    "normalized growth": 0.914
  },
  {
    "MOLECULE": "N#CCCCCOc1ccc2c(=O)cc(-c3ccccc3)oc2c1",
    "normalized growth": 0.989
  },
  {
    "MOLECULE": "CN(C(=O)N(C)c1ccc(Cl)cc1C(=O)c1ccccc1Cl)c1ccc(Cl)cc1C(=O)c1ccccc1Cl",
    "normalized growth": 0.855
  },
  {
    "MOLECULE": "O=C(CSCc1nc(-c2ccc(Cl)cc2)cs1)N/N=C\\c1cccs1",
    "normalized growth": 0.98
  },
  {
    "MOLECULE": "N#CCC(=O)c1cccc(CSc2ccccc2Cl)c1",
    "normalized growth": 0.976
  },
  {
    "MOLECULE": "CCC(C)Cn1c(Sc2ncc([N+](=O)[O-])s2)n[nH]c1=O (stereo unspecified)",
    "normalized growth": 0.93
  }
]
